Kindly supply the reported pIC50 values for the records listed here.
# Tested on: U87 shCTRL cells
# Assay Name: MTT cell viability assay, U87 shCTRL (expressing Tau)
# Assay type: cell-based, human
# Conditions Used: Homo sapiens; U87 shCTRL, 72 h, MTT; mean ± SEM; read-out: IC50 (metabolic activity)
One number for each entry, as −log10 of the molar value.

As a guide, the following entries are already answered.
>  <Compound>
Nc1nc2ccc3oc(-c4ccccc4)c(O)c(=O)c3c2s1 [Compound 12]

>  <Target Of Assay>
U87 shCTRL cells

>  <pIC50>
6.22

$$$$
>  <Compound>
Nc1nc2ccc3oc(-c4ccc(F)cc4)c(O)c(=O)c3c2s1 [Compound 11]

>  <Target Of Assay>
U87 shCTRL cells

>  <pIC50>
6.52

$$$$

Lab note: compound Nc1nc2ccc3oc(-c4cccc(F)c4)c(O)c(=O)c3c2s1 [Compound 10] tested on U87 shCTRL cells; recorded pIC50 was 5.92
